- Test system: IL-6, IP-10
- ASSAY DETAILS: Cytokine induction in mice upon intravenous administration
- Type: in vivo
- Set-up: unit not given here
- CONDITION SET: intravenous, 0.5 mpk, 6 hours
MEASURED PROPERTY: Cytokine induction IP-10
// return just the number, without any unit appended

Use these answered entries as a reference point.
{"COMPOUND": "CCCCCCCCCCCOC(=O)CCCCCN(CCO)CCCCCC(=O)OCCCCCCCCCCC", "OBSERVED": 1072.04}
{"COMPOUND": "CCCCCCCCCOC(=O)CCCCCCCN(CCCCO)CCCCCCCC(=O)OC(CCCCCCCC)CCCCCCCC", "OBSERVED": 2468.24}
{"COMPOUND": "CCCCCCCCCOC(=O)CCCCCCCN(CCO)CCCCCC(=O)OC(CCCCCCCC)CCCCCCCC", "OBSERVED": 345.56}
{"COMPOUND": "CCCCCCCCCOC(=O)CCCCCCCN(CCCO)CCCCCCCC(=O)OC(CCCCCCCC)CCCCCCCC", "OBSERVED": 1468.94}
{"COMPOUND": "CCCCCCCCCOC(=O)CCCCCCCN(CCCCCCCC(=O)OC(CCCCCCCC)CCCCCCCC)CC(C)O (centres unmarked)", "OBSERVED": 138.16}

So, CCCCCCCCC(CCCCCCCC)OC(=O)CCCCCCCN(CCO)CCCCCCCC ? Its Cytokine induction IP-10 was 2253.09

So, CCCCCCCCCOC(=O)CCCCCCCN(CCCCCCCC(=O)OC(CCCCCCCC)CCCCCCCC)C1CCCCC1O (centres unmarked) ? Its Cytokine induction IP-10 was 976.50

So, CCCCCCCCCOC(=O)CCCCCCCN(CCCCCCCC(=O)OC(CCCCCCCC)CCCCCCCC)CCN(C)C ? Its Cytokine induction IP-10 was 621.49

So, CCCCC/C=C\C/C=C\CCCCCCCCN(CCO)CCCCCCCC(=O)OCCCCCCCCC ? Its Cytokine induction IP-10 was 887.91

So, CCCCCCCCCOC(=O)CCCCCCCN(CCO)CCCCCCCOC(=O)C(CCCCCCCC)CCCCCCCC ? Its Cytokine induction IP-10 was 1638.77

So, CCCCCCCCCOC(=O)CCCCCCCN(CCO)CCCCCCC(=O)OCC(CCCCCCCC)CCCCCCCC ? Its Cytokine induction IP-10 was 209.63
